Molecular target: T1, Mrgpra2b-GFP (mouse, UniProt Q91WW4 1-305)
T1 sequence (looked up): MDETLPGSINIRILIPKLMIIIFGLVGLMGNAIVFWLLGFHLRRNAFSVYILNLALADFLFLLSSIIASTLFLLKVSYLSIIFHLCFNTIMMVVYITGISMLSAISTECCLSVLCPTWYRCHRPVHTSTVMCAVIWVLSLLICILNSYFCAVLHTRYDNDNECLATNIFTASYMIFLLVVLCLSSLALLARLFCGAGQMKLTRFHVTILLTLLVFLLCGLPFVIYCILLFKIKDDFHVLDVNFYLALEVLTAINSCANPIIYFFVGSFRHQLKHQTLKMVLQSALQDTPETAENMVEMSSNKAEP
Experiment: flow cytometry on cells
Where no end group is shown, it is not given here. The star is where a group is joined. Biotin = O=C1N[C@H]2[C@H](CS[C@H]2CCCCC(=O)*)N1
property name: Kd (µM)
Express the result in µM but write the number alone.

*Q* Specify measured Kd for Biotin-GIINTLQKYYCRVRGGRCAVLSCLPKEEQIGKCSTRGRKCCRRKK (peptide, UniProt P81534 23-67, looked up, ends and bridges not checked) [N-terminal biotinylated human beta-defensin 3] .
*A* 15.9
